# TGT: human GLP-1 receptor (human, UniProt P43220 24-463)
# PROTOCOL_SUMMARY: cell-based or functional assay
Bridges are numbered along the chain shown (N, C = ends). Where no end group is shown, it is not given here. [ ]: non-standard residue; d: D form. The star is where a group is joined. Acetyl(2-(4-imidazolyl)) = O=C(Cc1c[nH]cn1)*; Aib = CC(C)(N)C(=O)O
In vitro activity relative to native peptide (%) vs. GLP-1: recorded values
Please reply with the bare figure in % and do not write the unit itself.

- BINDER: "Y[Aib]QGTFTSDYSKYLDERACKDFVQWLLDHHPSSGQPPPS (bridge 16-20) [triple agonist of SEQ ID NO: 71]"
  UNIT_SYMBOL: "%"
  MEASUREMENT: 90.1
- BINDER: "Y[Aib]QGTFTSDYSKYLDECRAKEFVQWLKNGGPSSGAPPPS (bridge 16-20) [triple agonist of SEQ ID NO: 24]"
  UNIT_SYMBOL: "%"
  MEASUREMENT: 41.2
- BINDER: "Y[Aib]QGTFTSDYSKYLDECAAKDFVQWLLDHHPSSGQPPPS (bridge 16-20) [triple agonist of SEQ ID NO: 67]"
  UNIT_SYMBOL: "%"
  MEASUREMENT: 28.5
- BINDER: "Y[Aib]QGTFTSDYSKYLDECRAKDFVQWLLDHHPSSGQPPPS (bridge 16-20) [triple agonist of SEQ ID NO: 66]"
  UNIT_SYMBOL: "%"
  MEASUREMENT: 15.8

The record that follows has no In vitro activity relative to native peptide (%) vs. GLP-1 shown yet.
Lab book: In vitro activity relative to native peptide (%) vs. GLP-1 of [Acetyl(2-(4-imidazolyl))]GEGTFISDLSKYMDEQAVQLFVEWLMAGGPSSGAPPPSHG [triple agonist of SEQ ID NO: 12] noted as 0.4
